Molecular target: Cholinesterase (Homo sapiens, UniProt P06276)
Sequence (P06276 whole entry): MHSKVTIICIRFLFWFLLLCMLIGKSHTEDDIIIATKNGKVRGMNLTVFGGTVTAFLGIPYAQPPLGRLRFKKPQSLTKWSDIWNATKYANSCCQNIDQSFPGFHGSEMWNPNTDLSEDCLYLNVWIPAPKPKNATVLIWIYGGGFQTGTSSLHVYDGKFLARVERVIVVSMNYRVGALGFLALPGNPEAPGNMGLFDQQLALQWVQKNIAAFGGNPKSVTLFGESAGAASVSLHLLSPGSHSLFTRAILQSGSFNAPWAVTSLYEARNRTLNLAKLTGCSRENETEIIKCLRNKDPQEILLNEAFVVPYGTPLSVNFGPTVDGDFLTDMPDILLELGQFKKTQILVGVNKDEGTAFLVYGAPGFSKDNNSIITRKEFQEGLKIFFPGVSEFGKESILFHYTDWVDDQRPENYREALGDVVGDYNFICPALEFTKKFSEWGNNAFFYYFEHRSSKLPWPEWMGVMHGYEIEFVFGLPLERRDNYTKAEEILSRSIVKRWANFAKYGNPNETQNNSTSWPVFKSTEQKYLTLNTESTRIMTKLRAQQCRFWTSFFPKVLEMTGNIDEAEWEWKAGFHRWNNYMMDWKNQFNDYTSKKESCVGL
pIC50: −log10 of the molar value.
Reported Metric: pIC50

Molecule	Reported Metric	Result Value
Oc1cccc(C2=Nc3ccccc3SC(c3cccc(Cl)c3)C2)c1 (stereo unspecified)	pIC50	4.53
CN(C)c1ccc(C2CC(c3cccc(O)c3)=Nc3ccccc3S2)cc1 (stereo unspecified)	pIC50	4.46
COc1ccccc1C1CC(c2cccc(O)c2)=Nc2ccccc2S1 (stereo unspecified)	pIC50	5.33
Oc1cccc(C2=Nc3ccccc3SC(c3cccc(O)c3)C2)c1 (stereo unspecified)	pIC50	5.33
Oc1cccc(C2=Nc3ccccc3SC(c3ccc(Cl)cc3)C2)c1 (stereo unspecified)	pIC50	4.10
Oc1cccc(C2=Nc3ccccc3SC(c3cccs3)C2)c1 (stereo unspecified)	pIC50	5.40
